Known melting point of a selection of compounds

CCc1nc2c(N)nc3cc(OCc4cccc(CO)n4)ccc3c2s1
186 to 187 °C

For reference, reported melting point for CCCc1nc2c(N)nc3cc(OCc4ccccc4)ccc3c2s1 stands at 175 to 178 °C

Short answer for CCc1nc2c(N)nc3cc(OCCCn4cc(CO)nn4)ccc3c2s1 : melting point was 194 to 197 °C

Value of measured melting point for the entry CCCc1nc2c(N)nc3cc(OCCOCc4ccccc4)ccc3c2s1 : 142 to 145 °C

The measured melting point associated with CCc1nc2c(N)nc3cc(OCc4ccc(C(=O)OC)o4)ccc3c2s1 reads 184 to 186 °C

---

EXPERIMENTAL_ENDPOINT: melting point

CCc1nc2c(N)nc3cc(OCCc4c(C)n[nH]c4C)ccc3c2s1
195 to 197 °C
CCCc1nc2c(N)nc3cc(OCc4cccnc4)ccc3c2s1
167 to 169 °C
CCCc1nc2c(N)nc3cc(OCc4ccoc4)ccc3c2s1
170 to 171 °C
CCCc1nc2c(N)nc3cc(OCc4c(C)noc4C)ccc3c2s1
178 to 180 °C

Noted for CCc1nc2c(N)nc3cc(OCc4ccc(C(F)(F)F)o4)ccc3c2s1 : its melting point reads 152 to 154 °C

According to the records, this molecule CCc1nc2c(N)nc3cc(OCc4cccc(Cl)n4)ccc3c2s1 displays melting point of 229 to 230 °C

---

EXPERIMENTAL_ENDPOINT: melting point

In the examples that follow, each entry is paired with its recorded melting point.
CCCc1nc2c(N)nc3cc(OCc4ccc(F)cc4)ccc3c2s1 [Example 2]
189 to 192 °C
CCCc1nc2c(N)nc3cc(OCc4cscn4)ccc3c2s1 [Example 31]
218 to 220 °C
CCCc1nc2c(N)nc3cc(OCCn4cccc4)ccc3c2s1 [Example 33]
158 to 160 °C

Reported melting point of CCc1nc2c(N)nc3cc(OCc4ccc(S(=O)(=O)NCCc5cc6ccccc6[nH]5)cc4)ccc3c2s1 [Example 37] : 100 to 101 °C

Lab note: measured melting point of CCc1nc2c(N)nc3cc(OCCc4c[nH]c5ccccc45)ccc3c2s1 [Example 45] was 218 to 220 °C

melting point for CCc1nc2c(N)nc3cc(OCc4ccccc4)ccc3c2s1 [Example 29] is 208 to 209 °C

Just so you know, measured melting point for CCc1nc2c(N)nc3cc(OCCCc4cccnc4)ccc3c2s1 [Example 30] came out at 172 to 173 °C

---

EXPERIMENTAL_ENDPOINT: melting point

// sample CCCc1nc2c(N)nc3cc(OCCc4ccc(F)cc4)ccc3c2s1 , its melting point was 145 to 148 °C

Note to self: melting point recorded for CCCc1nc2c(N)nc3cc(OCCCn4cccc4)ccc3c2s1 was 152 to 154 °C

For this molecule ( CCc1nc2c(N)nc3cc(OCc4nc5ccccc5s4)ccc3c2s1 ), measured melting point is 211 to 212 °C

Kindly note the recorded melting point for CCc1nc2c(N)nc3cc(Oc4ccc(C(=O)OC)cn4)ccc3c2s1 , which is 213 to 214 °C
